# ASSAY_SYSTEM: T1, SmN C-terminal tail, residues 167-240 (complete proline-rich region), wild type (human, UniProt P63162 167-240)
# T1 construct: The ITC methods print 168-240 for this construct; also called SmN_167-240 WT; source: E. coli BL21, purified (Ni-NTA, TEV cleavage, gel filtration); not shown: His6, N-terminal, cleaved; GST, N-terminal, cleaved
# EXPERIMENTAL_DETAILS: ITC; Sm tail constructs with wild type OCRE; SmN constructs (1 mM) titrated into OCRE (100 μM); ITC200, 24°C, 20 mM sodium phosphate pH 6.5, 50 mM NaCl; duplicates
# MEASUREMENT_SETUP: both partners purified
ATTRIBUTE_MEASURED: pKd
// pKd: -log10(molar conc.)

In: Give the value of pKd reported for the following: RBM5 OCRE domain (residues 451-511), wild type (domain or fragment, human, tripeptide left by the TEV cleavage; 15N- or 13C,15N-labelled in the NMR experiments; also called RBM5_OCRE WT; source: E. coli BL21, purified (Ni-NTA, TEV cleavage, gel filtration); not shown: His6, N-terminal, cleaved) GAMGTKYAVPDTSTYQYDESSGYYYDPTTGLYYDPNSQYYYNSLTQQYLYWDGEKETYVPAAES
Out: 4.39

From: paper PMC5127646
